src = patent US20240218057A1

- Target Under Test: T1, SARS-COV-2 RBD (SARS-COV-2, UniProt P0DTC2 319-539)
- T1 construct: also called WT RBD
- Assay Explanation: ELISA, RBD coated on plate
Parameter Measured: EC50

Observe how each entry below is paired with its result.
>>> reading("C1066 (antibody, V domains shown) VH: EVQLVESGGGLVQPGRSLRLSCAASGFMFDDYAMHWVRQAPGKGLEWVSGINWSSADIGYVDSVKGRFTISRDNAKNSLYLQMNSLRTEDTAFYYCAKGWFGELLGGSDSWGQGTLVTVSS VL: QLVLTQSSSASASLGSSVKLTCTLNSGHSSYIIAWHQQQPGKAPRYLMKLEGSGSYNKGSGVPDRFSGSSSGADRYLTISNLQFEDEADYYCATWDSNTQVFGGGTKLTVL")
"3.01 ng/mL"
>>> reading("C951 (antibody, V domains shown) VH: QVQLQESGPRLVKPSGTLSLTCAVSGGSISTTNWWSWVRQPPGKGLEWIGEIHHSGNTNYNPSLKSRVTISVDRSKNQFSLKLSSVTAADTAVYFCARDGGRPGDPFDIWGQGTMVTVSS VL: QSALTQPASVSGSPGQSITISCTGTSSDVGGYNYVSWYQQHPGKAPNLMIYDVSDRPSGVSNRFSGSKSGNTASLTISGLQAEDEADYYCNSFTSNSTRVFGTGTKVTV")
"0.81 ng/mL"
>>> reading("C940 (antibody, V domains shown) VH: QVQLQESGSGLVKPSQTLSLTCAVSGGSASSGGYSWSWIRQPPGKGLEWIGYIYHSGSTYYNPSLKSRVTISLDRTKKQFSLKLSSVTAADTAVYYCARFCLSGSHYLFAFDIWGPGTMVTVSS VL: QSALTQPASVSGSPGQSITISCTATSSDVGGYNFVSWYQQYPGKVPKLLIYDVGNRPSGVSNRFSGSKSGNTASLTISGLQAEDEADYYCSSYTNSSTFFGGGTKLTVL")
"1.8 ng/mL"
>>> reading("C1065 (antibody, V domains shown) VH: EVQLVESGGGLIQPGGSLRLSCAASGFTVSRNYMSWVRQAPGKGLEWVSVIYSGGSTFYADSVKGRFTISRDNSKNTLYLQMNSLRAEDTAVYYCARGLPTGEGWNYFDYWGQGTLVTVSS VL: QSALTQPASVSGSPGQSITISCTGTSSDIGGYHYVSWYQQHPGKAPKLMIYDVSNRPSGISNRFSGSKSGNTASLTISGLQAEDEADYYCSSYASSSVIFGGGTKLTVL")
"3.52 ng/mL"
>>> reading("C923 (antibody, V domains shown) VH: QVQLVESGGGLVKPGGSLRLSCAASGFTFSDYHMTWIRQAPGKGLEWVSYISNRSTYRNYADSVKGRFTISRDNAKNSLYLQMNSLRAEDTAVYYCARDGGAYDRFDYWGQGTLVTVSS VL: DIQMTQSPSSLSASVGDRVTITCQASQDIKKFLNWYQQKPGKAPKLLIYDASNLETGVPSRFSGSGSGTDLTFTISSLQPEDIATYYCQQYDNLPLTFGQGTKLEIK")
"1.95 ng/mL"
>>> reading("C1040 (antibody, V domains shown) VH: QVQLVESGGGVVQPGRSLRLSCAASGFSFINYNMHWVRQAPGKGLEWVAVIWYDGSNKYYADSVKGRFTISRDNSKNTLYLQMNSLRVEDTAVYYCARDPAITEAEIDYWGQGTLVTVSS VL: DVVMTQSPLSLPVTLGQAASISCRSSQSLVHSDGNTYLNWFQQRPGQSPRRLIYRVSNRDSGVPDRFSASGSGTDFTLKISRVEAEDVGVYYCMQGTHWPWTFGQGTKVEIK")
"2.08 ng/mL"
>>> reading("C929 (antibody, V domains shown) VH: EVQLVESGGGLIQPGGSLRLSCAASGFTVSSNYMTWVRQAPGKGLEWVSVIYSGGTTYYADSVKGRFTISRDNSKNTLYLQMNSLRAEDTAVYYCARDLVVWGMDVWGQGTTVTVSS VL: DIQLTQSPSFLSASVGDRVTITCRASQGISSYLAWYQQKPGKAPKLLIYAASTLQSGVPSRFSGSGSGTEFTLTISSLQPEDFATYYCQLLNSYPYTFGQGTKLEIK")
"2.07 ng/mL"
>>> reading("C1067 (antibody, V domains shown) VH: QVQLVQSGAEVKKPGASVKVSCKASRDTFTTHYIHWVRQAPGQGLEWMGIINPSGGSISYAQKFQGRVTMTRDTSTSTVYMELSSLRSEDTAVYYCARGGIVPHLSNWFDPWGQGTLVTVSS VL: EIVLTQSPGTLSLSPGERATLSCRASQSVSSSYLAWYQQKPGQAPRLLIYGASSRATGIPDRFTGSGSGTDFTLTISRLEPEDFAVYYCQQYGRSSGFTFGPGTKVDIK")
"2.93 ng/mL"
>>> reading("C910 (antibody, V domains shown) VH: QVQLVQSGAAVKKPGASVKVSCKASGYTFTSYDINWVRQAPGQGLEWMGWMNPNSGNTGFAQRFQGRATLSRDTSITTAYMELTTLRSEDTAVYYCARGRANYNSKFLLDNWGQGTLVTVSS VL: QSALTQPASVSGSPGQSITISCTGTSSDVGSYNLVSWYQQHPGTAPKLMIYEGSKRPSGVSDRFSGYKSGNTASLTISGLQADDEADYYCCSFAGSTTRYVFGTGTRVTVL")
"2.47 ng/mL"

Req: # return recorded EC50 for input C906 (antibody, V domains shown) VH: EVQLVESGGGLIKPGRSLRLSCTASGFTFGDYAMTWFRQAPGKGLEWVGFIRSKAYGGTTGYAASVKYRFTISRDDSKSIVYLQMDSLKTEDTAVYYCTRWDGWSQHDYWGQGTLVTVSS VL: DIVMTQSPLSLSVTPGEPASISCRSSQSLLHSNGINYFDWYLQKPGQSPQLLIYLGSNRASGVPDRFSGSGSGTDFTLKISRVEAEDVGVYYCMQVLQIPYTFGQGTKLEI
Resp: 1.07 ng/mL
